B1: POU domain, class 3, transcription factor 3, residues 408 to 463; numbered along this chain, P20264 (parent)
chain: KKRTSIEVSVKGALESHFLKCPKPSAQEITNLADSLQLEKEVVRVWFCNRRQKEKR

Variants of: B1
Measurement Notes: abundance fitness (aPCA) (normalised: wild type 0, dead -1); higher = more abundant; growth selection in yeast, the domain comes from the species named
Condition Summary: Homo sapiens
Readout Label: abundance fitness

Answered cases to consult:
> print(dat)
                             sequence.entry      readout.label  reported.value
1  KKRTSIEVSVKGALESHFLKCPKPSAQEITNLADSLQIEKEVVRVWFCNRRQKEKR [L38I]  abundance fitness          -0.048
2  KKRTSIEVSVKGALESHFLKCPKPSAQEWTNLADSLQLEKEVVRVWFCNRRQKEKR [I29W]  abundance fitness          -0.903
3  KKRTSIEVSVKGALESHFLKCPKPSAMEITNLADSLQLEKEVVRVWFCNRRQKEKR [Q27M]  abundance fitness          -0.194
4  LKRTSIEVSVKGALESHFLKCPKPSAQEITNLADSLQLEKEVVRVWFCNRRQKEKR [K1L]  abundance fitness          -0.756
5  KKRTSIEVSGKGALESHFLKCPKPSAQEITNLADSLQLEKEVVRVWFCNRRQKEKR [V10G]  abundance fitness          -0.241
6  YKRTSIEVSVKGALESHFLKCPKPSAQEITNLADSLQLEKEVVRVWFCNRRQKEKR [K1Y]  abundance fitness          -0.258

Kindly give each listed record's abundance fitness.
1. KKRTSIEVSVKGALESHHLKCPKPSAQEITNLADSLQLEKEVVRVWFCNRRQKEKR [F18H]
2. KKRTSIVVSVKGALESHFLKCPKPSAQEITNLADSLQLEKEVVRVWFCNRRQKEKR [E7V]

## Output
1. -0.932
2. -0.197
